assay: Toxicity liver stage against HepG2, at 10uM; type: cell-based; design: test concentration 10 uM, cell line HepG2-A16-CD81EGFP; conditions: human, HepG2-A16-CD81EGFP cells; read-out: INHIBITION
Property Measured: cytotoxicity at 10 µM (%)
Give bare numbers, in %.

Known results for molecules:
State the recorded cytotoxicity at 10 µM for this entry: COc1ccc(Cl)cc1CCNC(=O)NCc1cnn(C)c1C
3.87

Next record, please: Cc1nn(C)c2c(NCCCn3cccn3)nc(C(C)C)nc12
6.67

Next record, please: CN(C)C(=O)CNC(=O)c1nc2c(s1)CCCN2Cc1ccccc1
8.13

Switching to the query record.
State the recorded cytotoxicity at 10 µM for this entry: Cc1nn(CC(=O)N(C)Cc2nncn2C(C)C)c(=O)c2ccccc12
3.1
